Test system: Plasmodium falciparum
Experiment: GSK_TCMDC: Inhibition of Plasmodium falciparum Dd2 in whole red blood cells, using parasite LDH activity as an index of growth. Test compounds present at 2uM
Assay type: functional
Inhibition overview
readout type: Inhibition (%)

>  <smiles repr>
O=C(Nc1ccc(Cl)cc1)N[C@H]1CCN(Cc2ccc(OCCCN3CCCCC3)cc2)C1

>  <subject of test>
Plasmodium falciparum

>  <recorded result>
0

$$$$
>  <smiles repr>
CCNc1cc(C(=O)N[C@@H](Cc2ccccc2)[C@H](O)CNCCc2ccccc2)cc(N2CCCC2=O)c1.O=C(O)C(F)(F)F

>  <subject of test>
Plasmodium falciparum

>  <recorded result>
46

$$$$
>  <smiles repr>
CCN(CC)CCCNc1cc[n+]([O-])c2cc3ccccc3cc12

>  <subject of test>
Plasmodium falciparum

>  <recorded result>
3

$$$$
>  <smiles repr>
Clc1ccc(Nc2nc3nonc3nc2Nc2ccc(Cl)c(Cl)c2)cc1

>  <subject of test>
Plasmodium falciparum

>  <recorded result>
92

$$$$
>  <smiles repr>
CC1(C)C(=O)Nc2ccccc2N1C(=O)CN1CCN(c2ccccc2O)CC1

>  <subject of test>
Plasmodium falciparum

>  <recorded result>
72

$$$$

====

System: Plasmodium falciparum
Experiment: GSK_TCMDC: Inhibition of Plasmodium falciparum Dd2 in whole red blood cells, using parasite LDH activity as an index of growth. Test compounds present at 2uM
Type: functional
Each item that follows carries a reported Inhibition.
readout type: Inhibition (%)

>  <molecule>
O=C(O)C(F)(F)F.O=S(=O)(NCCN1CCCC1)c1ccc(-c2ccc(CNCc3ccccc3)cc2)cc1

>  <unit info>
%

>  <recorded result>
28

$$$$
>  <molecule>
CC(C)(C)OC(=O)NCc1ccc(Nc2nnc(-c3cccc(C(=O)NCc4cc(C(F)(F)F)cc(C(F)(F)F)c4)c3)o2)cc1

>  <unit info>
%

>  <recorded result>
13

$$$$
>  <molecule>
COc1ccc2nccc(N3CCC(CCNCc4ccc5c(n4)NC(=O)CS5)CC3)c2c1.Cl

>  <unit info>
%

>  <recorded result>
86

$$$$
>  <molecule>
CN(C)c1ccc2nc(N)nc(N)c2c1Cl.Cl

>  <unit info>
%

>  <recorded result>
0

$$$$
>  <molecule>
O=C(O)C(F)(F)F.O=[N+]([O-])c1cccc(CNCC2CCC(CNCc3cccc([N+](=O)[O-])c3)CC2)c1 (stereo not given)

>  <unit info>
%

>  <recorded result>
76

$$$$
>  <molecule>
COc1cccc(NC(=O)Cn2c(C)c(C(=O)C(F)(F)F)c3ccccc32)c1

>  <unit info>
%

>  <recorded result>
94

$$$$
>  <molecule>
CN(C)c1ccc(CN2CCCC(CNC(=O)c3ccc(-c4cccc(C(F)(F)F)c4)s3)C2)cc1.O=C(O)C(F)(F)F (stereo not given)

>  <unit info>
%

>  <recorded result>
37

$$$$
>  <molecule>
COc1cc(Nc2nccc(N3CCC(NC(=O)c4cccc(NC(C)=O)c4)C3)n2)cc(OC)c1OC (stereo not given)

>  <unit info>
%

>  <recorded result>
68

$$$$
>  <molecule>
CCC(C)c1ccc(O)c(NC(=O)c2cncc(Br)c2)c1 (stereo not given)

>  <unit info>
%

>  <recorded result>
16

$$$$
>  <molecule>
O=C(Nc1cccc(C(F)(F)F)c1)c1cccc(S(=O)(=O)NCC2CCCN(Cc3ccccc3)C2)c1.O=C(O)C(F)(F)F (stereo not given)

>  <unit info>
%

>  <recorded result>
3

$$$$

====

Tested on: Plasmodium falciparum
Assay: GSK_TCMDC: Inhibition of Plasmodium falciparum Dd2 in whole red blood cells, using parasite LDH activity as an index of growth. Test compounds present at 2uM
Format: functional
Response key: class 1 means Inhibition >= 20%; class 0 means Inhibition < 20%.

>  <compound>
Cc1cccc2nc(-c3ccc(-c4cccc(C(=O)NCCc5cn(C)cn5)c4)s3)[nH]c12

>  <category>
class 0

$$$$
>  <compound>
O=C(/C=C/c1ccc(Cl)c(Cl)c1)NCCCCCN1CCCN(C(=O)Nc2cc(Cl)cc(Cl)c2)CC1

>  <category>
class 0

$$$$
>  <compound>
Cc1ccc(CNC(=O)c2ccc(CN3CCCN(Cc4ccsc4)CC3)cc2)cc1.O=C(O)C(F)(F)F

>  <category>
class 0

$$$$
>  <compound>
CC(=O)Nc1nc(C(=O)Nc2cccc(-c3ccc(-c4nc5ccccc5[nH]4)cc3)c2)cs1

>  <category>
class 1

$$$$
>  <compound>
COc1ccc(CC(=O)NC2CCN(c3ccnc4cc(Cl)ccc34)C2)cc1.O=C(O)C(F)(F)F (stereo not drawn)

>  <category>
class 1

$$$$
>  <compound>
CN1CCCC(CN2CCN(Cc3cccc(-c4cccc(-c5nc6ccccc6[nH]5)c4)c3)CC2)C1.O=C(O)C(F)(F)F (stereo not drawn)

>  <category>
class 1

$$$$
>  <compound>
O=c1cc(NC[C@H]2CCC[C@@H]2NC2CCCc3c2[nH]c2ccccc32)[nH]c2ccccc12 (stereo partly drawn)

>  <category>
class 1

$$$$
>  <compound>
CC(C)CCN1CCCN(Cc2ccc(C(=O)Nc3ccc(Cl)cc3)cc2)CC1.O=C(O)C(F)(F)F

>  <category>
class 0

$$$$

====

# Inhibition per record follows
Tested on: Plasmodium falciparum
Assay: GSK_TCMDC: Inhibition of Plasmodium falciparum Dd2 in whole red blood cells, using parasite LDH activity as an index of growth. Test compounds present at 2uM
Format: functional
readout type: Inhibition (%)

>  <compound>
Cn1c(-c2ccccc2)cc2c3c(=O)cc(C(F)(F)F)[nH]c3ccc21

>  <unit info>
%

>  <recorded result>
49

$$$$
>  <compound>
Cc1cc(OCCCn2ccnc2)ccc1-c1csc(/N=C(\N)NCc2ccccc2)n1

>  <unit info>
%

>  <recorded result>
42

$$$$
>  <compound>
Cc1cccc2nc(-c3cccc(-c4ccc(C(=O)NCCc5ccc(O)c(=O)[nH]5)cc4)c3)[nH]c12

>  <unit info>
%

>  <recorded result>
30

$$$$
>  <compound>
O=C(Nc1ccc(CN2CCOCC2)cc1)c1ccc(-c2cc(Cl)ccc2Cl)o1

>  <unit info>
%

>  <recorded result>
13

$$$$
>  <compound>
c1ccc(C23NC(=Nc4nc5ccccc5[nH]4)NC2(c2ccccc2)NC(=Nc2nc4ccccc4[nH]2)N3)cc1 (centres undefined)

>  <unit info>
%

>  <recorded result>
89

$$$$
>  <compound>
CN/C(=N\O)NCCN(C)C.Cl

>  <unit info>
%

>  <recorded result>
0

$$$$
>  <compound>
COc1ccc2[nH]c(/C=C/c3cccc4ccc(C)nc34)nc2c1

>  <unit info>
%

>  <recorded result>
77

$$$$
>  <compound>
O=C(O)C(F)(F)F.c1ccc(CCNCc2cccc(-c3ccc(CNc4ccc5ncccc5c4)cc3)c2)cc1

>  <unit info>
%

>  <recorded result>
27

$$$$
>  <compound>
CC(C)N1CCN(CCCNc2c3ccccc3nc3ccccc23)CC1.Cl

>  <unit info>
%

>  <recorded result>
1

$$$$
>  <compound>
Cc1cc(-c2cccc(CNC3CCN(C)CC3)c2)ccc1S(=O)(=O)NC1CCC1.O=C(O)C(F)(F)F

>  <unit info>
%

>  <recorded result>
96

$$$$
>  <compound>
COc1ccc2nc(-c3cccc(C)n3)nc(Nc3ccncc3)c2c1

>  <unit info>
%

>  <recorded result>
42

$$$$
>  <compound>
C=CCOc1cccc2c1CCN(CCN1CCC(NC(=O)c3ccc(-c4ccc(Cl)cc4)cc3)CC1)C2

>  <unit info>
%

>  <recorded result>
22

$$$$
>  <compound>
Cc1c(C)c2c(c(C)c1O)CC[C@](C)(C(=O)N1CCC(CCN3CCC(c4c[nH]c5ccccc45)CC3)CC1)O2

>  <unit info>
%

>  <recorded result>
74

$$$$
>  <compound>
CN(Cc1cc(C(F)(F)F)cc(C(F)(F)F)c1)C(=O)C(Cc1ccc(F)cc1)C1CCCNC1 (centres undefined)

>  <unit info>
%

>  <recorded result>
89

$$$$
>  <compound>
COc1ccc2nccc([C@@H](O)CN3CCC(NC(=O)/C(=C/c4ccccc4)c4ccc(-c5ccccc5)cc4)CC3)c2c1

>  <unit info>
%

>  <recorded result>
38

$$$$
>  <compound>
CCn1c(-c2nonc2N)nc2c(-c3ccccc3)ncc(OCCCNCCCN3CCOCC3)c21.O=C(O)C(F)(F)F

>  <unit info>
%

>  <recorded result>
91

$$$$
>  <compound>
COc1cc2nc(N3CCN(C(=O)c4c(Cl)nsc4-c4ccccc4Cl)CC3)nc(N)c2cc1OC.O=C(O)C(F)(F)F

>  <unit info>
%

>  <recorded result>
100

$$$$
>  <compound>
Cc1ccc(Nc2nc(C)cc(NC3CCCC3)n2)cc1

>  <unit info>
%

>  <recorded result>
89

$$$$
>  <compound>
Cc1ccc(-c2cnc(N)c3cc(-c4ccnc(N)n4)ccc23)cc1

>  <unit info>
%

>  <recorded result>
94

$$$$
